The reported numbers originate from patent US8623863B2.

Entries with reported Ki on orexin-2 receptor (OX2R) (Homo sapiens (Human))
Sequence (O43614 whole entry): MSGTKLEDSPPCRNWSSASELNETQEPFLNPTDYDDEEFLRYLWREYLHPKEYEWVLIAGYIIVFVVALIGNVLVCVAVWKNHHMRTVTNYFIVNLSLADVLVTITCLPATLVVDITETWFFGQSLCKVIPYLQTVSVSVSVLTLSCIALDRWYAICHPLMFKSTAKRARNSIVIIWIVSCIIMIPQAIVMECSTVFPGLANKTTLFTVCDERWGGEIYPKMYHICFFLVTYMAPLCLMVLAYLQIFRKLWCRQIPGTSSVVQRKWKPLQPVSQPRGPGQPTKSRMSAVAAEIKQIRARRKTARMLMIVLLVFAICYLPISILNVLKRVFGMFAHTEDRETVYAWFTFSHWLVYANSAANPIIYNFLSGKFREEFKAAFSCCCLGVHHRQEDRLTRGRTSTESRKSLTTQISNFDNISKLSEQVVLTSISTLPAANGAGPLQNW
One number for each entry, in nM.

# compound, Ki, nM
data = [
    ("Cc1ccc(-n2nccn2)c(C(=O)N2CC(COc3ccc(F)cn3)CCCC2C)c1 (stereo not drawn)", 9.7),
    ("Cc1ccc(-c2ncccn2)c(C(=O)N2CC(COc3ccc(F)cn3)CCCC2C)c1 (stereo not drawn)", 14),
    ("Cc1cc(OCC2CCCC(C)N(C(=O)c3ccccc3-n3nccn3)C2)ccc1F (stereo not drawn)", 10),
]

Lab note: each compound below needs its Ki filled in.
1. Cc1ccc(-c2nccs2)c(C(=O)N2CC(COc3ccc(F)cn3)CCCC2C)c1 (stereo not drawn)
2. Cc1ccc(-c2nccs2)c(C(=O)N2CC(COc3ccc(F)c(C)c3)CCCC2C)c1 (stereo not drawn)
3. Cc1ccc(-c2ncccn2)c(C(=O)N2CC(COc3ccc(F)c(C)c3)CCCC2C)c1 (stereo not drawn)

(A)
1: 3.8; 2: 4.2; 3: 10
